Data provenance is patent US6369059B1.

molecule	melting point
COc1ccc([C@@H]2c3[nH]c4ccccc4c3C[C@@H]3C(=O)N(C)CC(=O)N23)cc1 [Example 107]	285 to 288 °C
CC(C)CN1CC(=O)N2[C@H](c3ccc4c(c3)OCO4)c3[nH]c4ccccc4c3C[C@@H]2C1=O [Example 81]	227 to 228 °C
CN1CC(=O)N2[C@@H](c3ccc4c(c3)OCCO4)c3[nH]c4ccccc4c3C[C@@H]2C1=O (relative stereo) [Example 38]	303 to 305 °C
O=C1[C@H]2Cc3c([nH]c4ccccc34)[C@H](c3ccc4c(c3)OCO4)N2C(=O)CN1Cc1ccccn1 (relative stereo) [Example 10]	285 to 286 °C
O=C1[C@H]2Cc3c([nH]c4ccccc34)[C@@H](c3ccc4c(c3)OCO4)N2C(=O)CN1C1CCCC1 [Example 82]	237 to 239 °C
COc1ccc(CN2CC(=O)N3[C@H](c4ccc5c(c4)OCO5)c4[nH]c5ccccc5c4C[C@@H]3C2=O)cc1OC [Example 97]	224 to 226 °C
CCCCN1CC(=O)N2[C@@H](c3ccccc3)c3[nH]c4ccccc4c3C[C@@H]2C1=O (relative stereo) [Example 44]	243 to 245 °C
